- System: XF498
- TEST: NCI tumour cell line growth inhibition, 48 h
Activity calls are given as the source filed them. No stated cut-off is given here; in the data, active = GI50 up to about 1.1 µM and inactive = higher.
Answer with one of the outcomes Yes for active, No for inactive

// query What classification did NNc1nnc(-c2ccccc2)nc1Cc1ccccc1 end up with in this test?
// result No

// query What classification did COC1=C(C(=O)OC(C)(C)C)[C@]2(C)C(C(=O)OC(C)(C)C)C(OC)=C(C(=O)OC(C)(C)C)[C@]2(C)C1C(=O)OC(C)(C)C (stereo not given in full) end up with in this test?
// result No

// query What classification did O=C1Cc2ccccc2N1/N=C\c1ccc([N+](=O)[O-])cc1 end up with in this test?
// result No

// query What classification did COc1ccc(Nc2nc(C#N)c(N)s2)cc1 end up with in this test?
// result No

// query What classification did CC(=O)O[C@]12CCCCCC1C1(O)C(O)CCCCC12 (stereo not given in full) end up with in this test?
// result No

// query What classification did Cn1c2ccccc2n2c(=O)c3c(c(C#N)c12)CCCC3 end up with in this test?
// result No

// query What classification did Cc1cc(Cl)ccc1NC1=NC(=O)C(CC(=O)Nc2ccc([N+](=O)[O-])cc2[N+](=O)[O-])S1 (stereo not given) end up with in this test?
// result No

// query What classification did CCOC(=O)C(=O)Nc1ccccc1C end up with in this test?
// result No

// query What classification did O=C(OCc1ccccc1)c1ccccc1-c1c2ccc(=O)cc-2oc2cc(OCc3ccccc3)ccc12 end up with in this test?
// result No

// query What classification did COc1ccc(CC(C#N)c2cc(OC)c(OC)c(OC)c2)cc1 (stereo not given) end up with in this test?
// result Yes

====

Give GI50 for every item shown.
- System: M14
- TEST: NCI tumour cell line growth inhibition, 48 h
Active and inactive are the calls of the source. Rule as the data show it: active = GI50 up to about 1.1 µM and inactive = higher.

Reported GI50 for C=CCOc1ccc(C(=N/NC(=O)c2ccccc2)/N=N/c2ccc(C)cc2)cc1OC was 22.7 µM (inactive)

Reported GI50 for O=C1/C(=C/c2ccco2)NC(=S)N1CN1CCCCC1 was 99.3 µM (inactive)

Reported GI50 for OC(c1ccccc1Br)(c1ccccc1Br)C(F)(F)F was 34.7 µM (inactive)

Reported GI50 for CCOC(C)OCC#CCCBr (stereo unspecified) was > 100 µM (inactive)

Reported GI50 for Cc1cc(C)c2c(c1)CC1(Cc3ccc(C)c(C)c3C1=O)C2=O (stereo unspecified) was > 100 µM (inactive)

Reported GI50 for Cc1cc(N(CCC#N)CCC#N)ccc1C(/N=N/c1ccc(Cl)cc1)=N\NC(=O)c1ccccc1 was 80.5 µM (inactive)

====

- Test system: HCC 2998
- TEST: NCI tumour cell line growth inhibition, 48 h
Calls of active or inactive are those of the source. Rule as the data show it: active = GI50 up to about 1.1 µM and inactive = higher.
Give GI50 for every item shown.

Reported GI50 for CCC(C)CC(C)CC(C)/C=C(\C)C1=C(C)CC(C)(O)O1 (configuration not stated) was > 100 µM (inactive)

Reported GI50 for CC(=O)OCC1OC(NC(=O)N(CCCl)N=O)C(OC(C)=O)C(OC(C)=O)C1OC(C)=O (configuration not stated) was > 100 µM (inactive)

Reported GI50 for O=C(OCc1ccccc1)c1ccccc1-c1c2ccc(=O)cc-2oc2cc(OCc3ccccc3)ccc12 was 19.6 µM (inactive)

Reported GI50 for O=C1OC[C@@H]2Cc3c([nH]c4ccccc34)[C@@H](c3cc(O)c(O)c(O)c3)N12 was 48.1 µM (inactive)

Reported GI50 for Cc1cc2oc(-c3ccccc3)c(C)c(=O)c2c2c1OC(C)(C)S2 was > 100 µM (inactive)

Reported GI50 for C=C1C(=O)O[C@H]2C/C(C=O)=C\[C@H]3O[C@H]3/C(COC(=O)C(C)C)=C/CC12 (some centres not stated) was 13.4 µM (inactive)

Reported GI50 for CCCCOC(=O)/C(CC(=O)C=C(C)C)=N\NS(=O)(=O)c1ccc(C)cc1 was > 100 µM (inactive)

Reported GI50 for COc1ccc2ccccc2c1/C=C/C(=O)c1ccccc1 was 1.66 µM (inactive)

Reported GI50 for O=C(NN=C1CCN(Cc2ccccc2)CC1)C(O)(c1ccccc1)c1ccccc1 was > 100 µM (inactive)

Reported GI50 for Cc1ccc(S(=O)(=O)N2CCCN(S(=O)(=O)c3ccc(C)cc3)CC2)cc1 was > 100 µM (inactive)

Reported GI50 for Cc1nc2c(s/c(=N\N)n2-c2ccccc2)c(=O)[nH]1 was > 100 µM (inactive)

Reported GI50 for COc1cc(/C=C2/SC(c3ccccc3)N(c3ccc(Cl)cc3)C2=O)cc(OC)c1OC (configuration not stated) was > 100 µM (inactive)

Reported GI50 for COc1ccc(C2COc3c(ccc(O)c3C)C2)cc1OC (configuration not stated) was 27.9 µM (inactive)

Reported GI50 for OC12c3ccccc3C1CCCCCCCCCC21OCCO1 (configuration not stated) was > 100 µM (inactive)

Reported GI50 for [N-]=[N+]=C1C(=O)C2CC3CC(C2)CC1C3 was > 100 µM (inactive)

Reported GI50 for NC1=Nc2cc(C(F)(F)F)ccc2Sc2nc3ccccc3n21 was > 94.8 µM (inactive)

Reported GI50 for COC(=O)[C@@H]1C[C@]2(Br)c3ccccc3N(S(=O)(=O)c3ccccc3)[C@@H]2N1C(=O)OC was 84.3 µM (inactive)

Reported GI50 for N#Cc1c(N)sc2c1-c1ccccc1OC2 was 26 µM (inactive)

Reported GI50 for COc1cc2c(cc1OC)C1C(O)C(OC)C(Br)C3(Br)CCN(C2)C13 (configuration not stated) was 70.3 µM (inactive)

Reported GI50 for CC(C)(C)c1ccc(O)c(C(O)c2ccncc2)c1 (configuration not stated) was 39.7 µM (inactive)

Reported GI50 for CC(C)/C(Cl)=N\OC(=O)Nc1cccc(Cl)c1 was 17 µM (inactive)

Reported GI50 for CCOC(=O)C(=O)Nc1ccccc1C was > 100 µM (inactive)

====

- System: HCT-116
- TEST: NCI tumour cell line growth inhibition, 48 h
Calls of active or inactive are those of the source. Cut-off read from the data, not from the text of the source: active = GI50 up to about 1.1 µM and inactive = higher.
QUANTITY KIND: GI50

Reported GI50 for O=C(OCc1ccccc1)N1CCCc2c(n(S(=O)(=O)c3ccccc3)c3ccccc23)C1 was > 100 µM (inactive)

Reported GI50 for O=C1c2ccccc2C2CNC1(O)c1ccccc12 (stereo unspecified) was > 100 µM (inactive)

Reported GI50 for Cn1c2ccc(C3=NCCN3)cc2c2cc(C3=NCCN3)ccc21 was 21.9 µM (inactive)

Reported GI50 for CC(C)c1cccc(C(C)C)c1NC(=O)CCC(=O)NN was 66.4 µM (inactive)

Reported GI50 for CC12C(=O)N(CCN)C(=O)C1C1c3ccccc3C2c2ccccc21 (stereo unspecified) was > 100 µM (inactive)

Reported GI50 for CCC(C)CC(C)CC(C)/C=C(\C)C1=C(C)CC(C)(O)O1 (stereo unspecified) was 41 µM (inactive)

Reported GI50 for O=C1Nc2ccccc2/C1=N/Nc1ccccc1Cl was 23.7 µM (inactive)

Reported GI50 for CC(C)(C)c1ccc(C(C)(C)C)c(N2C(=O)[C@@H]3[C@@H]4C=C[C@@H](C4)[C@]3(C)C2=O)c1 was 15.5 µM (inactive)

Reported GI50 for CN(C)CCCCN1CCc2c(n(C)c3ccccc23)C1=O was 40.3 µM (inactive)

Reported GI50 for CCC1=C(CC)C1(C#N)[N+](=O)[O-] was > 100 µM (inactive)

Reported GI50 for O=c1c2ccccc2nc(-c2ccccc2Cl)n1NCC1(O)OCC(O)C(O)C1O (stereo unspecified) was > 100 µM (inactive)

Reported GI50 for COc1cc(/C=C(\C#N)c2nc3ccccc3o2)ccc1O was 16.5 µM (inactive)

Reported GI50 for O=C(NO)C(=O)Nc1ccc(Cl)cc1[N+](=O)[O-] was > 100 µM (inactive)

Reported GI50 for N#Cc1c(N)sc2c1-c1ccccc1OC2 was 27.3 µM (inactive)

Reported GI50 for CC1=C2C(=CC(C)(CO)C2O)C(=O)C(C)(O)C12CC2 (stereo unspecified) was 0.00123 µM (active)

Reported GI50 for CC1CC[C@@]2(OC1)OC1C[C@H]3[C@@H]4CC[C@H]5CC(OC6OC(CO)C(OC7OC(CO)C(O)C(O)C7O)C(O)C6O)CCC5(C)[C@H]4CCC3(C)C1[C@@H]2C (stereo partly specified) was 7.53 µM (inactive)

Reported GI50 for Cc1nc2ccccc2n1Cc1nnc2n1N=C(c1ccccc1)CS2 was 27.7 µM (inactive)

Reported GI50 for CC(C)c1ccc(Cc2ccc(C(C)C)c(NC(=O)C(=O)Cc3cnc4ccccc4n3)c2C(C)C)c(C(C)C)c1NC(=O)C(=O)Cc1cnc2ccccc2n1 was > 100 µM (inactive)

Reported GI50 for CN(C)Cc1cc(C(=O)/C=C/c2ccc(Cl)cc2Cl)cc(CN(C)C)c1O was 3.07 µM (inactive)

Reported GI50 for CCOc1ccc(NC(=O)C(=O)CC(=O)c2c[n+]([O-])c3cc(C)c(C)cc3[n+]2[O-])cc1 was > 100 µM (inactive)

Reported GI50 for C=C[C@]1(C)CC(O)C2C(=C)C(=O)OC2[C@H]1C(=C)C=O (stereo partly specified) was 1.64 µM (inactive)
